molecular target: SpCas9 (Streptococcus pyogenes serotype M1); test: Strand displacement assay (SDA) / cumulative activity assay (CAA), SpCas9 primary screen; type: biochemical; details: Primary Screen (150 min); replicate 2
Reported Property: Normalized Z score 2

[
  {
    "Molecule": "O=C(CSc1nnc2ccccn12)Nc1cc(C(=O)O)cc(C(=O)O)c1",
    "Result": 0.13
  },
  {
    "Molecule": "O=C(O)c1cccc(NCC2SC(=S)NC2=O)c1 (stereo not shown)",
    "Result": 0.27
  },
  {
    "Molecule": "Cc1[nH]nc2ccc(-c3cncc(OCC(N)Cc4ccccc4)c3)cc12 (stereo not shown)",
    "Result": 0.21
  },
  {
    "Molecule": "O=C(NCC1CCCO1)c1ccc(Oc2ccnc(-c3ccc(F)cc3)n2)cc1 (stereo not shown)",
    "Result": 0.38
  }
]

* * *

molecular target: SpCas9 (Streptococcus pyogenes serotype M1, UniProt Q99ZW2); experiment: eGFP disruption assay, SpCas9, U2OS.eGFP.PEST cells; type: cell-based; conditions: replicate 1, raw readout
Sequence (Q99ZW2 whole entry): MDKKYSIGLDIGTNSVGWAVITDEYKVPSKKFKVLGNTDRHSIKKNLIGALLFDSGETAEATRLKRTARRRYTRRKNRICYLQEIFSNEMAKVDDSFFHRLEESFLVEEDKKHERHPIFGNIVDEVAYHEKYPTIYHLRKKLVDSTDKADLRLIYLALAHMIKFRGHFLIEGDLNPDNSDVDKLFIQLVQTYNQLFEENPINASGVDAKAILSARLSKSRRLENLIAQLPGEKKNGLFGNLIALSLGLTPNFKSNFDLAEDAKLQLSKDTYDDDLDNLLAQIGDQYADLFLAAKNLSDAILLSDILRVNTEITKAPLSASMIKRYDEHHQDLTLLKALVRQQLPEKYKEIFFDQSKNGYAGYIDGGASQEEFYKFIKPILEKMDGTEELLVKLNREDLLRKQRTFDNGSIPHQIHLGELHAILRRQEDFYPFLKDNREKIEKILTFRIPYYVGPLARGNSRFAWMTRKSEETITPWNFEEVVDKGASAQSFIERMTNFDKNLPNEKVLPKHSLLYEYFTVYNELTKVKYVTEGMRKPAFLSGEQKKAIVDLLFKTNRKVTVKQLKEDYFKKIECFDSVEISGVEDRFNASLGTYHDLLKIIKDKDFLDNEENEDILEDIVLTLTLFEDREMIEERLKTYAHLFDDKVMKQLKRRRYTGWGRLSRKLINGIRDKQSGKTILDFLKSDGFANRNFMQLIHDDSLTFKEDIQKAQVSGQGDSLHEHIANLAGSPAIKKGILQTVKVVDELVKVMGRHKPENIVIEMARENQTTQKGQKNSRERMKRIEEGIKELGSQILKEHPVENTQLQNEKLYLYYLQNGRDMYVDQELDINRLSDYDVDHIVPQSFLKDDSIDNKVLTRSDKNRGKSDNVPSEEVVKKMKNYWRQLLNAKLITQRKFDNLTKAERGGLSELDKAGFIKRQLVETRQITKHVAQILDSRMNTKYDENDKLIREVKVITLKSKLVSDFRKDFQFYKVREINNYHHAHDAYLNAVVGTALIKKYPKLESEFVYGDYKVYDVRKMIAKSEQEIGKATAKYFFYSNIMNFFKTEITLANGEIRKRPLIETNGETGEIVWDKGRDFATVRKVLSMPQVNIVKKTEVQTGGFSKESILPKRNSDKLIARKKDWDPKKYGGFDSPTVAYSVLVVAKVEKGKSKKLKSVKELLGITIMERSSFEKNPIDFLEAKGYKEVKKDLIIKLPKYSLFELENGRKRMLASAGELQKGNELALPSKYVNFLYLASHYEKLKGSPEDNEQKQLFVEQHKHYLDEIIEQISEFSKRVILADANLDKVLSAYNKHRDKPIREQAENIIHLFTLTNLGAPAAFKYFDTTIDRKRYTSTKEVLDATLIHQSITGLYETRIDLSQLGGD
Numbered stars: 1 amine (or outer) side, 2 acyl side, 3 side chain; on linkers, the order of the positions; unused ones are H or OH. Bridge positions count the residues as written; N and C are the ends. Square brackets hold non-standard residues; d marks the D form. Peptide text beside a SMILES is read from it. I, II: the chains in the order shown. Actinocin(9to1) = Cc1c2oc3c(C)ccc(C(=O)[*:1])c3nc-2c(C(=O)[*:2])c(N)c1=O; NMeV = CN[C@H](C(=O)O)C(C)C; Sar = CNCC(=O)O
Listed next: entries and their corresponding SpCas9 eGFP disruption Rep1.
Reported Property: SpCas9 eGFP disruption Rep1

[
  {
    "Molecule": "Cc1nn(-c2ccccc2)c(C)c1CCc1nn2c(-c3ccncc3)nnc2s1",
    "Experimental System": "SpCas9 (Streptococcus pyogenes serotype M1, UniProt Q99ZW2)",
    "Numeric Value": 63.496
  },
  {
    "Molecule": "Cc1c2oc3c(C)ccc(C(=O)N[C@@H]4C(=O)N[C@H](C(C)C)C(=O)N5CCC[C@H]5C(=O)N(C)CC(=O)N(C)[C@@H](C(C)C)C(=O)O[C@@H]4C)c3nc-2c(C(=O)N[C@@H]2C(=O)N[C@H](C(C)C)C(=O)N3CCC[C@H]3C(=O)N(C)CC(=O)N(C)[C@@H](C(C)C)C(=O)O[C@@H]2C)c(N)c1=O [SAM001246846] (I: T[dV]P[Sar][NMeV] / II: T[dV]P[Sar][NMeV]; ester I:1-I:C, II:1-II:C; linker I:N-II:N via Actinocin(9to1))",
    "Experimental System": "SpCas9 (Streptococcus pyogenes serotype M1, UniProt Q99ZW2)",
    "Numeric Value": 26.655
  },
  {
    "Molecule": "CN(C)S(=O)(=O)Nc1ccc(N2CCCC(CN3CCCC3)C2)c(C(=O)O)c1 (centres unmarked)",
    "Experimental System": "SpCas9 (Streptococcus pyogenes serotype M1, UniProt Q99ZW2)",
    "Numeric Value": 57.443
  },
  {
    "Molecule": "CC(C)(C)OC(=O)NCCOc1ccc(S(=O)(=O)CCC(=O)Nc2nc(-c3ccncc3)cs2)cc1",
    "Experimental System": "SpCas9 (Streptococcus pyogenes serotype M1, UniProt Q99ZW2)",
    "Numeric Value": 54.15
  },
  {
    "Molecule": "Cc1ccc(-c2nc(CN3CCCC(C(=O)Nc4cc(C)ccc4O)C3)no2)cc1 (centres unmarked)",
    "Experimental System": "SpCas9 (Streptococcus pyogenes serotype M1, UniProt Q99ZW2)",
    "Numeric Value": 73.517
  }
]

* * *

Molecular target: SaCas9 (Staphylococcus aureus, UniProt J7RUA5)
Sequence (J7RUA5 1-1053): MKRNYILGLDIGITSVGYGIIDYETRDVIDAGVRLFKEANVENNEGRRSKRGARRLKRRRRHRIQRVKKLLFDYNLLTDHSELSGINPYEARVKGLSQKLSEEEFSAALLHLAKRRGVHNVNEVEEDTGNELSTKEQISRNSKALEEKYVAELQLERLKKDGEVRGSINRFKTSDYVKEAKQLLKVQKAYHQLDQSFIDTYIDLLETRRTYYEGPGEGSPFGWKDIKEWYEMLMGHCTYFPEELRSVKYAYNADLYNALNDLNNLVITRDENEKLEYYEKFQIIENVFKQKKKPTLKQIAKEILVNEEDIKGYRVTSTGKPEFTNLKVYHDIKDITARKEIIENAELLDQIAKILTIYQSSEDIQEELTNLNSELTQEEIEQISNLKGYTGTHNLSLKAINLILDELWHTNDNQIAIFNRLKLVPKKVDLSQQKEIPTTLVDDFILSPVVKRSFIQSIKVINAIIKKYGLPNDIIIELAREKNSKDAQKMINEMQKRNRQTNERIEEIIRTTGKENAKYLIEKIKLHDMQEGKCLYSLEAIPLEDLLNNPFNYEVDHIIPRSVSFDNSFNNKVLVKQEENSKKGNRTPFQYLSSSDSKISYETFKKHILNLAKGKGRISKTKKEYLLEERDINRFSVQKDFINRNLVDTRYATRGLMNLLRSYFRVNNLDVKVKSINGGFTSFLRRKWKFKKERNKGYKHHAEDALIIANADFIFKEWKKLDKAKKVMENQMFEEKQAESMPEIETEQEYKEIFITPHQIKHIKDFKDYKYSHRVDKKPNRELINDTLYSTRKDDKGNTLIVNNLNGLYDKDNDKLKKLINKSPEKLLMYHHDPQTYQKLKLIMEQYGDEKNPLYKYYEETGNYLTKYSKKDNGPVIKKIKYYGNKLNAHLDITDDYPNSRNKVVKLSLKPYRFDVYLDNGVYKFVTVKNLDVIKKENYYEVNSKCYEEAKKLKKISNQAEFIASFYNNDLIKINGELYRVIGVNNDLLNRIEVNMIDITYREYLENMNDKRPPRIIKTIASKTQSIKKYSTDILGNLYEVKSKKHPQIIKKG
Test: Strand displacement assay, SaCas9 primary screen
Format: biochemical
Conditions: flag 1 = hit at 5 sigma
Listed next: entries and their corresponding 5 sigma Hit.

[
  {
    "Input Smiles": "CCN(Cc1ccccc1)c1ncc(NS(=O)(=O)CC)cc1C(=O)O",
    "5 sigma Hit": 1
  },
  {
    "Input Smiles": "COc1cccc(CNCc2cccn2-c2sc(C)c(C)c2C(=O)O)c1",
    "5 sigma Hit": 1
  },
  {
    "Input Smiles": "Cn1nc(-c2ccc(Cl)cc2)c2cc(C(=O)O)sc21",
    "5 sigma Hit": 1
  }
]

* * *

biological target: SaCas9 (Staphylococcus aureus); assay: eGFP secondary assay, SaCas9; assay type: cell-based; conditions: replicate 1, Zscore>3 selected as hit
Threshold-based label: Z score Rep1 under 6 gives rule met, Z score Rep1 not under 6 gives rule not met.

[
  {
    "Compound": "Cc1cc(-c2nn3c(-c4cccc(F)c4)nnc3s2)c2ccccc2n1",
    "Experimental System": "SaCas9 (Staphylococcus aureus)",
    "Assigned Class": "rule met"
  },
  {
    "Compound": "CCCCn1nnnc1NCc1ccc2c(c1)n(C)c(=O)n2C",
    "Experimental System": "SaCas9 (Staphylococcus aureus)",
    "Assigned Class": "rule met"
  },
  {
    "Compound": "CC(C)Cc1nnc2sc(-c3c[nH]c4ccccc34)nn12",
    "Experimental System": "SaCas9 (Staphylococcus aureus)",
    "Assigned Class": "rule met"
  },
  {
    "Compound": "CC(=O)Nc1ccc(C(=O)Nc2ccc(CCc3nc4ccccc4n3-c3ccccc3)cc2)cc1",
    "Experimental System": "SaCas9 (Staphylococcus aureus)",
    "Assigned Class": "rule met"
  },
  {
    "Compound": "Cc1ccc(C)c(Nc2nc(C(N)=O)c(NC(=O)c3ccc(C)nc3Cl)s2)c1",
    "Experimental System": "SaCas9 (Staphylococcus aureus)",
    "Assigned Class": "rule met"
  },
  {
    "Compound": "Cc1occc1-c1nnc2sc(-c3c[nH]c4ccccc34)nn12",
    "Experimental System": "SaCas9 (Staphylococcus aureus)",
    "Assigned Class": "rule not met"
  },
  {
    "Compound": "COc1cccc(N2C(=O)c3cc4ccccc4n3CC2(C)C(=O)NC2CCCCC2)c1 (stereo not drawn)",
    "Experimental System": "SaCas9 (Staphylococcus aureus)",
    "Assigned Class": "rule not met"
  },
  {
    "Compound": "Cc1nc(Nc2ccc(N3CCOCC3)cc2)cc(-c2ccccc2)n1",
    "Experimental System": "SaCas9 (Staphylococcus aureus)",
    "Assigned Class": "rule met"
  },
  {
    "Compound": "O=c1oc2c(O)c(O)ccc2c2c1CCCC2",
    "Experimental System": "SaCas9 (Staphylococcus aureus)",
    "Assigned Class": "rule met"
  }
]
